# System: Alkaline phosphatase, tissue-nonspecific isozyme (Bos taurus, UniProt P09487)
# Sequence (P09487 whole entry): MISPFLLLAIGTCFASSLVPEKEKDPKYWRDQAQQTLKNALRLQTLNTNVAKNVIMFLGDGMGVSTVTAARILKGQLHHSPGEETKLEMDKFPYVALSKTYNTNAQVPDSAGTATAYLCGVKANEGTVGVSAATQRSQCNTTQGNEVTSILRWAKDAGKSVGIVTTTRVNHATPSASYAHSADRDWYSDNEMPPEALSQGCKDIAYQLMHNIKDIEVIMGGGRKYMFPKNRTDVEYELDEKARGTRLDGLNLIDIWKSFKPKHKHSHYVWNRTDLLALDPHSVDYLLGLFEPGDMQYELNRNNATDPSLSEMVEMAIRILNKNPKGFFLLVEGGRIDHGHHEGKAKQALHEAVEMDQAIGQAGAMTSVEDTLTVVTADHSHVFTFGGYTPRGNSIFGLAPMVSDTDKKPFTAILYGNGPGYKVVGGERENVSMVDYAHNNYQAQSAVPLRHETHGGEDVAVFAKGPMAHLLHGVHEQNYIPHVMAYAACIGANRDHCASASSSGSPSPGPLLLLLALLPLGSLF
pIC50: −log10 of the molar value.
Output true (1) for pIC50 not less than 6; output false (0) otherwise.

Reference set (4 entries):
* CN(C)c1ccc2c3c(cccc13)S(=O)(=O)NC2c1ccc(Cl)cc1 (stereo unspecified) | true (1)
* COc1cc(C2NS(=O)(=O)c3cccc4c(N(C)C)ccc2c34)ccc1O (stereo unspecified) | true (1)
* COc1ccccc1C1NS(=O)(=O)c2cccc3c(N(C)C)ccc1c23 (stereo unspecified) | true (1)
* Cc1ccc(C2NS(=O)(=O)c3cccc4c(N(C)C)ccc2c34)cc1 (stereo unspecified) | true (1)

Moving on to the next compound.
### Prompt For this compound, is measured pIC50 6 or higher? N[C@@H](Cc1ccccc1)C(=O)O [L-[2,3,4,5,6-3H]phenylalanine]
### Response false (0)

meta.source: BindingDB's records for doi:10.1016/j.bioorg.2017.01.008
